biological target: Thyrotropin-releasing hormone receptor (Homo sapiens) (UniProt P34981); experiment: qHTS assay to identify small molecule antagonists of the thyrotropin-releasing hormone receptor (TRHR) signaling pathway (AID 1346877); settings: TRHR-HEK293, TRH-induced calcium fluorescence, antagonist mode; series mostly up to 51.3 µM
Sequence (P34981 whole entry, looked up): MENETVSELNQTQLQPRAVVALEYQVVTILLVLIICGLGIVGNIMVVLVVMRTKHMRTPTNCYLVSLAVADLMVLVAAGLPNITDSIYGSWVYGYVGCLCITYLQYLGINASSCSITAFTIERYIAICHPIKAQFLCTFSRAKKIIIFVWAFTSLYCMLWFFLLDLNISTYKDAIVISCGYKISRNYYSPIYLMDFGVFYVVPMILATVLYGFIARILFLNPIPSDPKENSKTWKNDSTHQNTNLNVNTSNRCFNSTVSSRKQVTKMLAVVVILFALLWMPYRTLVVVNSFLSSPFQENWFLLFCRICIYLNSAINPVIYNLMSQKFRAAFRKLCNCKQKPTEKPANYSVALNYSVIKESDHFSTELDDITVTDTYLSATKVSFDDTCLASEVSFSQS
Active and inactive are the calls of the source. The call rests on the fitted dose curve; in most records, active means well fitted inhibition curve with a large enough effect in the repeat runs (not every such curve was filed as active); inconclusive means weak or mixed curves; inactive means flat fitted curve, though single readings scatter.
Metric: outcome

Reference set, count: 10
Compound | Metric | Result
Cc1ncc(CO)c(CO)c1O | outcome | inactive
NC(=O)c1ncn([C@@H]2O[C@H](CO)[C@@H](O)[C@H]2O)n1 | outcome | inactive
Cc1ccc(Cl)cc1 | outcome | inactive
COc1ccc2cc3[n+](cc2c1OC)CCc1cc2c(cc1-3)OCO2 | outcome | inactive
C1CCCNCC1 | outcome | inactive
CC(=O)OC(C)(C)C1CC=C(C)CC1 (stereo not drawn) | outcome | inactive
Cc1ccc([N+](=O)[O-])cc1N | outcome | inactive
CCCCC(=O)O | outcome | inactive
Cc1cc(C)c(O)c(C)c1 | outcome | inactive
Cc1cccc(C)c1[N+](=O)[O-] | outcome | inactive

Identify measured outcome corresponding to "CC(=O)OCc1ccc2c(c1)OCO2" inactive

Identify measured outcome corresponding to "OCc1ccc(Cl)cc1Cl" inactive

Identify measured outcome corresponding to "COc1cc(NC(=O)CC(C)=O)c(OC)cc1Cl" inactive

Identify measured outcome corresponding to "CCCCCNCCCCC" inactive

Identify measured outcome corresponding to "CC(=O)OCCC(C)C" inactive

Identify measured outcome corresponding to "CC(=O)Nc1ccc(CC(=O)O)cc1" inactive

Identify measured outcome corresponding to "O=C1OC(=O)c2c(Cl)c(Cl)c(Cl)c(Cl)c21" inactive

----------
assay: qHTS assay to identify small molecule agonists of the TGF-beta/Smad signaling pathway - cell viability counter screen (AID 1346829); settings: SBE-bla HEK293T viability, CellTiter-Glo luminescence, 5 h; series mostly up to 76.8 µM; further: top concentration of the series differs between compounds; nearly all actives have a fitted effect of over 45% in size
Records with an inconclusive call do not appear. Activity calls are given as the source filed them. Calls come from the whole dose curve; as a rule, active = well fitted cell-killing curve with a large enough effect in the repeat runs; inconclusive = weak or mixed curves, or effect the other way; inactive = flat fitted curve, though single readings scatter.
Metric: outcome

Reference set, count: 10
Compound | outcome
Cc1ccc(C(C)C)cc1 | inactive
CCc1cccc(CC)c1N | inactive
COc1ccccc1[N+](=O)[O-] | inactive
CC1=CC(=O)CC(C)(C)C1 | inactive
CCn1cc(C(=O)O)c(=O)c2cc3c(cc21)OCO3 | inactive
OCC(O)CS (stereo not drawn) | inactive
O=C1C(N(CO)C(=O)NCO)N(CO)C(=O)N1CO (stereo not drawn) | inactive
OCC(CO)(CO)CO | inactive
CC(=O)OC/C=C(\C)CCC=C(C)C | inactive
Cc1ccc(Cl)cc1 | inactive

Identify measured outcome corresponding to "Cc1ncc(CO)c(CO)c1O" inactive

Identify measured outcome corresponding to "OCc1ccc(Cl)cc1Cl" inactive

Identify measured outcome corresponding to "Clc1cccc(Cl)c1NC1=NCCN1" inactive

----------
test system: thyroid hormone receptor (rat, GH3 cells); test: qHTS assay to identify small molecule agonists of the thyroid receptor (TR) signaling pathway (AID 743066); conditions: GH3.TRE-Luc cells, TR agonist luciferase, 24 h; series mostly up to 83.9 µM
Records with an inconclusive call do not appear. Active and inactive are the calls of the source. The call rests on the fitted dose curve.
Metric: outcome

Reference set, count: 5
Compound | Test system | Result
C=C1C[C@]23C[C@@]1(O)CC[C@H]2[C@@]12C=C[C@H](O)[C@@](C)(C(=O)O1)[C@H]2[C@@H]3C(=O)O | thyroid hormone receptor (rat, GH3 cells) | inactive
COc1ccc2cc3[n+](cc2c1OC)CCc1cc2c(cc1-3)OCO2 | thyroid hormone receptor (rat, GH3 cells) | inactive
CCn1cc(C(=O)O)c(=O)c2cc3c(cc21)OCO3 | thyroid hormone receptor (rat, GH3 cells) | inactive
CC(=O)OCc1ccc2c(c1)OCO2 | thyroid hormone receptor (rat, GH3 cells) | inactive
CC(COCC(C)OC(=O)c1ccccc1)OC(=O)c1ccccc1 (stereo unspecified) | thyroid hormone receptor (rat, GH3 cells) | inactive

Identify measured outcome corresponding to "CC(=O)c1nccs1" inactive

Identify measured outcome corresponding to "CC(C)=CCC/C(C)=C/C=O" inactive

----------
assay: Caspase-3/7 induction in HepG2 cells by small molecules, qHTS assay (AID 1346978); details: HepG2 caspase-3/7 activation, Caspase-Glo luminescence, 17 h; series mostly up to 92.4 µM; further: nearly all actives have a fitted effect of over 15% in size
Results filed as inconclusive are left out. Calls of active or inactive are those of the source. Calls follow the shape of the dose curve; as a rule, active = well fitted activation curve with a large enough effect in the repeat runs; inconclusive = weak or mixed curves; inactive = flat fitted curve, though single readings scatter.
Metric: outcome

Reference set, count: 7
Smiles structure | Metric | Result
OCC(CO)(CO)CO | outcome | inactive
CCCCCNCCCCC | outcome | inactive
Cc1ccccc1Cl | outcome | inactive
OC1CCCCC1 | outcome | inactive
O=C(Cl)c1ccc(C(=O)Cl)cc1 | outcome | inactive
CCCCCC(C)=O | outcome | inactive
COc1ccc2cc3[n+](cc2c1OC)CCc1cc2c(cc1-3)OCO2 | outcome | inactive

With those in mind, consider the next compound.
Identify measured outcome corresponding to "N[C@@H](Cc1cc(I)c(Oc2ccc(O)c(I)c2)c(I)c1)C(=O)O" inactive

----------
test: Human pregnane X receptor (PXR) small molecule agonists, qHTS cell viability counter screen (AID 1346977); conditions: PXR-Luc HepG2 viability, CellTiter-Fluor, 24 h; series mostly up to 92.4 µM; further: nearly all actives have a fitted effect of over 50% in size
Results filed as inconclusive are left out. The source made the active and inactive calls. The call rests on the fitted dose curve; in most records, active means well fitted cell-killing curve with a large enough effect in the repeat runs; inconclusive means weak or mixed curves, or effect the other way; inactive means flat fitted curve, though single readings scatter.
Metric: outcome

Reference set, count: 5
Smiles structure | outcome
Brc1ccc(Oc2ccc(Br)cc2)cc1 | inactive
CC(=O)OCc1ccc2c(c1)OCO2 | inactive
CCn1cc(C(=O)O)c(=O)c2cc3c(cc21)OCO3 | inactive
CC(=O)OCCC(C)C | inactive
C=CC(=O)NCOCCCC | inactive

Identify measured outcome corresponding to "O=[N+]([O-])c1ccccc1C(F)(F)F" inactive

Identify measured outcome corresponding to "CC(C)=CCC/C(C)=C/C=O" inactive

Identify measured outcome corresponding to "CC/C(C)=N/O" inactive

Identify measured outcome corresponding to "OC1CCCCC1" inactive

----------
experiment: qHTS assay to identify small molecule antagonists of the estrogen related receptor signaling pathway with the pleiotropic PPARgamma coactivator (PGC) cell viability counter screen (AID 1224822;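 further: viability read after 17.5 h compound exposure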); settings: ERR/PGC reporter cell line viability counter screen; series mostly up to 46.1 µM
Results filed as inconclusive are left out. The source made the active and inactive calls. The call rests on the fitted dose curve; in most records, active means well fitted cell-killing curve with a large enough effect in the repeat runs; inconclusive means weak or mixed curves, or effect the other way; inactive means flat fitted curve, though single readings scatter.
Hi there, use one of these labels in your reply, thanks! Y (active), N (inactive)

Solved entries (count: 3):
Smiles structure | Assigned label
Clc1cccc(Cl)c1NC1=NCCN1 | N
O=c1c(O)c(-c2ccc(O)c(O)c2)oc2cc(O)cc(O)c12 | N
c1cnc2c(c1)ccc1cccnc12 | Y

Next item in the queue.
In this assay, the call recorded for "CCn1cc(C(=O)O)c(=O)c2cc3c(cc21)OCO3" was what? N

----------
experiment: qHTS assay to identify small molecule antagonists of the estrogen related receptor (ERR) signaling pathway - cell viability counter screen (AID 1224818); conditions: ERR reporter cell line viability counter screen; series mostly up to 46.1 µM;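 further: viability measured after 17.5 h of compound exposure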
Inconclusive results are not listed. The source made the active and inactive calls. Calls follow the shape of the dose curve; as a rule, active = well fitted cell-killing curve with a large enough effect in the repeat runs; inconclusive = weak or mixed curves; inactive = flat fitted curve, though single readings scatter.
Metric: outcome

Compound | outcome
Clc1cccc(Cl)c1NC1=NCCN1 | inactive
O=c1n(CCCN2CCN(c3cccc(Cl)c3)CC2)nc2ccccn12 | inactive
CC(CN1c2ccccc2Sc2ccccc21)N(C)C (stereo unspecified) | inactive
NC(=O)c1ncn([C@@H]2O[C@H](CO)[C@@H](O)[C@H]2O)n1 | inactive
CN1Cc2c(N)cccc2C(c2ccccc2)C1 (stereo unspecified) | inactive

With those in mind, consider the next compound.
Identify measured outcome corresponding to "CCn1cc(C(=O)O)c(=O)c2cc3c(cc21)OCO3" inactive

----------
biological target: Nuclear receptor subfamily 1 group I member 2 (Homo sapiens) (UniProt O75469); experiment: Human pregnane X receptor (PXR) activation by small molecules, qHTS assay (AID 1346985); conditions: DPX-2 HepG2 CYP3A4-luciferase, 24 h; series mostly up to 38.3 µM; further: nearly all actives have a fitted effect of over 40% in size
Inconclusive results are not listed. Active and inactive are the calls of the source. Calls follow the shape of the dose curve; as a rule, active = well fitted activation curve with a large enough effect in the repeat runs; inconclusive = weak or mixed curves; inactive = flat fitted curve, though single readings scatter.
Metric: outcome

Molecule | outcome
CCOC(=O)c1ccc(O)cc1 | inactive
CC1(C)[C@@H](O[C@H]2O[C@H](C(=O)O)[C@@H](O)[C@H](O)[C@H]2O[C@@H]2O[C@H](C(=O)O)[C@@H](O)[C@H](O)[C@H]2O)CC[C@]2(C)[C@H]3C(=O)C=C4[C@@H]5C[C@@](C)(C(=O)O)CC[C@]5(C)CC[C@@]4(C)[C@]3(C)CC[C@@H]12 | inactive
CN1Cc2c(N)cccc2C(c2ccccc2)C1 (stereo not given) | inactive
OCC(O)CS (stereo not given) | inactive

With those in mind, consider the next molecule.
Identify measured outcome corresponding to "CC(=O)OC[C@H]1O[C@@](COC(C)=O)(O[C@H]2O[C@H](COC(C)=O)[C@@H](OC(C)=O)[C@H](OC(C)=O)[C@H]2OC(C)=O)[C@@H](OC(C)=O)[C@@H]1OC(C)=O" inactive
